Data credit: patent US20110118131A1

Measured fold difference in affinity vs original accompanies every entry in the list below.
tested-target: T1, IL-1β (UniProt P01584 117-269)
T1 construct: Antigen immobilised on the Biacore chip
method-description: Biacore, periplasmic extract
Answer in fold, number only, no unit symbol.

Answered cases to consult:
* XPA23 light chain T52I (Fab, V domains shown) VH: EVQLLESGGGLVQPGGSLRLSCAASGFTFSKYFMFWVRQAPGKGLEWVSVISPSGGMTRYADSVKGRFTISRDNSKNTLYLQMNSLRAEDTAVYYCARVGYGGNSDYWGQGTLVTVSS VL: DIQMTQSPSSVSASVGDRLTIICRASQDINRWLAWYQQTPGNAPKLLIHSAISLQSGVPSRFSGSGSGTDFTLTINSLQPEDFATYYCQQADSFPLTFGGGTKVEIK | 0.8
* XPA23 light chain L96Q (Fab, V domains shown) VH: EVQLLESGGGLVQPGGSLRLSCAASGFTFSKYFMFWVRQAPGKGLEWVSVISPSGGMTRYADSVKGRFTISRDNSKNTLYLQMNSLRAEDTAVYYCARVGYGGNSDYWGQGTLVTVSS VL: DIQMTQSPSSVSASVGDRLTIICRASQDINRWLAWYQQTPGNAPKLLIHSATSLQSGVPSRFSGSGSGTDFTLTINSLQPEDFATYYCQQADSFPQTFGGGTKVEIK | 0.21

Prompt: Quick one: give measured fold difference in affinity vs original for XPA23 light chain H49N (Fab, V domains shown) VH: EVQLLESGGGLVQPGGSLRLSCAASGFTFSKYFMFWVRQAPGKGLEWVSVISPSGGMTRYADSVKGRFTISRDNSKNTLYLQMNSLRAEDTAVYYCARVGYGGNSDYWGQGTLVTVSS VL: DIQMTQSPSSVSASVGDRLTIICRASQDINRWLAWYQQTPGNAPKLLINSATSLQSGVPSRFSGSGSGTDFTLTINSLQPEDFATYYCQQADSFPLTFGGGTKVEIK
Response: 0.31
